biological target: HIV-1 BaL.01 Env gp160 on pseudovirus (HIV-1 BaL.01); assay: cell-based or functional assay
Bridges are numbered along the chain shown (N, C = ends). Where no end group is shown, it is not given here. [ ]: non-standard residue; d: D form. triazolo‑Pro(2,4-diMe-benzyl) = triazolo-proline with ortho- and para-methyl phenyl methyl on the triazole; triazolo‑Pro(3,5-diMe-benzyl) = triazolo-proline with two meta-methyl phenyl methyl on the triazole; triazolo‑Pro(4-tBu-phenyl) = triazolo-proline with para-tert-butylphenyl on the triazole
Provide the recorded HIV-1Bal.01 infection inhibition IC50 for the entries that follow.
Give the value, in units of nM, as a plain number.

Query: What value of HIV-1Bal.01 infection inhibition IC50 has been reported for the following binder? DNI[triazolo‑Pro(4-tBu-phenyl)]WK-NH2 (lactam 1-6) [cPT 22]
Response: 350

Query: And the next one, DNI[triazolo‑Pro(2,4-diMe-benzyl)]WK-NH2 (lactam 1-6) [cPT 27] ?
Response: 302

Query: Then DNI[triazolo‑Pro(3,5-diMe-benzyl)]WK-NH2 (lactam 1-6) [cPT 28] ?
Response: 2000
